ASSAY NAME: enhancers of RGS4 function in calcium signaling – cell-based, HEK293 M3R inducible RGS4, calcium flux, primary screen (AID 463111)
EXPERIMENTAL SETUP: HEK293 M3R/inducible RGS4, carbachol calcium flux Fluo4, at 10 µM
Screen size: about 310,000 compounds; about 2,800 (0.9%) were called active.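 Rule for the calls: active = B-score of the integrated calcium signal more than 4 SD below the library mean, with starting fluorescence not abnormally high; inactive = the rest.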 Many of the other results were omitted from the sample, so actives are more common in it than they were.
Labels: active, inactive

{"COMPOUND": "COc1cccc(C(=O)N/N=C(\\C)c2cccc(NC(=O)c3ccc(F)cc3)c2)c1OC", "CATEGORY": "active"}
{"COMPOUND": "COc1cccc2sc(N(CCCN(C)C)C(=O)CCS(=O)(=O)c3ccccc3)nc12", "CATEGORY": "inactive"}
{"COMPOUND": "CCOc1ccc(NC(=O)COc2ccc(S(=O)(=O)N3CCCC3)cc2)cc1", "CATEGORY": "inactive"}
{"COMPOUND": "O=C(CCCCCn1c(=S)[nH]c2cc3c(cc2c1=O)OCO3)N1CCN(c2ccc(F)cc2)CC1", "CATEGORY": "inactive"}
{"COMPOUND": "CCOc1ccc(N(C)S(=O)(=O)c2cnc[nH]2)cc1", "CATEGORY": "inactive"}
{"COMPOUND": "CC(C)CNC(=S)NNC(=O)c1ccccc1OC(F)F", "CATEGORY": "inactive"}
{"COMPOUND": "Cc1oc(C(N)=O)cc1COc1ccc(C(N)=O)cc1", "CATEGORY": "inactive"}
{"COMPOUND": "NC1=NC(c2ccc([N+](=O)[O-])cc2)N(c2ccc(F)cc2)C(N)=N1 (configuration not stated)", "CATEGORY": "inactive"}
{"COMPOUND": "Cc1cccc(C)c1NC(=O)CNC(=O)c1c(C)nn(-c2ccccc2)c1C", "CATEGORY": "inactive"}
{"COMPOUND": "O=C(/C=C/c1ccc([N+](=O)[O-])o1)NNC(=O)c1ccc(F)cc1", "CATEGORY": "inactive"}
{"COMPOUND": "CS(=O)(=O)Nc1ccc(C(=O)N2CCCC2)cc1", "CATEGORY": "inactive"}
{"COMPOUND": "CCCCn1c(N)c(N(CC)C(=O)c2ccccc2C(F)(F)F)c(=O)[nH]c1=O", "CATEGORY": "inactive"}
{"COMPOUND": "CCOc1ccc(NC(=O)C(C)N2C(=O)c3ccccc3C2=O)cc1 (configuration not stated)", "CATEGORY": "inactive"}
{"COMPOUND": "CCOc1ccc(C(CC(=O)O)NC(=O)Cc2ccccc2)cc1OC (configuration not stated)", "CATEGORY": "inactive"}
{"COMPOUND": "Cc1ccccc1CNC(=O)CCC(=O)N1Cc2ccccc2Oc2ncccc21", "CATEGORY": "inactive"}
{"COMPOUND": "Cc1ccc(OC(=O)c2ccccc2C(=O)OCC(F)(F)C(F)F)cc1", "CATEGORY": "inactive"}
{"COMPOUND": "Cc1ccc(OCC(=O)NC(C)c2ccccc2)cc1C (configuration not stated)", "CATEGORY": "inactive"}
{"COMPOUND": "CCOC(=O)c1c(NC(=S)NC)sc2c1CCCC2", "CATEGORY": "inactive"}
{"COMPOUND": "Cn1nc(C(F)(F)F)c2cc(NC(=O)OCC(C)(C)C)sc21", "CATEGORY": "inactive"}
{"COMPOUND": "CNC(=O)c1[nH]cnc1C(=O)N[C@@H](CC(C)C)C(=O)OCc1ccccc1", "CATEGORY": "inactive"}
{"COMPOUND": "O=C(CN1C(=O)c2cccnc2Oc2ccc(Cl)cc21)NCCc1ccccc1", "CATEGORY": "inactive"}
{"COMPOUND": "O=C(NNC(=S)NCc1ccco1)C(c1ccccc1)c1ccccc1", "CATEGORY": "inactive"}
{"COMPOUND": "COc1cccc(C(=O)Nc2cccnc2)c1OC", "CATEGORY": "inactive"}
{"COMPOUND": "O=C(Nc1nccs1)C1CCN(S(=O)(=O)c2ccc(Cl)c(C(F)(F)F)c2)CC1", "CATEGORY": "inactive"}
{"COMPOUND": "COc1ccc(/C(C)=N\\NC(=O)c2ccc(-c3ccccc3)cc2)c(F)c1", "CATEGORY": "inactive"}
{"COMPOUND": "CC(C)CN(C(=O)Cn1c(=O)cnc2ccccc21)C1CCS(=O)(=O)C1 (configuration not stated)", "CATEGORY": "inactive"}
{"COMPOUND": "CCCN(c1ccc(C)cc1)c1nc(=O)c2cccnc2s1", "CATEGORY": "inactive"}
{"COMPOUND": "O=C(Cc1ccc(F)cc1)N1CCN=C1SCc1cccc([N+](=O)[O-])c1", "CATEGORY": "inactive"}
{"COMPOUND": "O=C(c1cccs1)C1C(c2ccc(Br)cc2)NC(=S)NC1(O)C(F)(F)F (configuration not stated)", "CATEGORY": "active"}
{"COMPOUND": "CCC(C(=O)OC)n1cnc2scc(-c3ccc(C)cc3)c2c1=O (configuration not stated)", "CATEGORY": "inactive"}
{"COMPOUND": "CCCn1nnnc1NC(=O)COc1ccc(Cl)cc1C", "CATEGORY": "inactive"}
{"COMPOUND": "CCSc1nc(=S)n(CC)c(C)c1C(C)=O", "CATEGORY": "inactive"}
